System: Vero
protocol notes: Cytotoxicity against African green monkey Vero cells assessed as reduction in cell viability after 72 hrs by CellTiterGlo assay
Type: cell-based
condition set: Chlorocebus sabaeus

[
  {
    "compound": "Oc1ccc2cc1Oc1cc(ccc1O)CCC(NCCc1ccccc1)CCCC2 (configuration not stated)",
    "unit spec": "µg/mL",
    "IC50": 11.1
  },
  {
    "compound": "COc1ccc2cc1Oc1ccc(cc1)CCC(NCCc1ccc(F)cc1)CCCC2 (configuration not stated)",
    "unit spec": "µg/mL",
    "IC50": 3.7
  },
  {
    "compound": "COc1ccc2cc1Oc1cc(ccc1OC)CCC(NC/C=C(\\C)CCC=C(C)C)CCCC2 (configuration not stated)",
    "unit spec": "µg/mL",
    "IC50": 5.6
  },
  {
    "compound": "COc1ccc2cc1Oc1cc(ccc1OC)CCC(NCCc1ccc3ccccc3c1)CCCC2 (configuration not stated)",
    "unit spec": "µg/mL",
    "IC50": 7
  },
  {
    "compound": "COc1ccc2cc1Oc1cc(ccc1OC)CCC(NCCc1ccc(Cl)cc1)CCCC2 (configuration not stated)",
    "unit spec": "µg/mL",
    "IC50": 6.8
  },
  {
    "compound": "COc1ccc2cc1Oc1cc(ccc1OC)CCC(NCCc1ccc(Br)cc1)CCCC2 (configuration not stated)",
    "unit spec": "µg/mL",
    "IC50": 6.9
  },
  {
    "compound": "COc1ccc2cc1Oc1cc(ccc1OC)CCC(NCCc1ccc(F)cc1)CCCC2 (configuration not stated)",
    "unit spec": "µg/mL",
    "IC50": 7.3
  }
]

These data points were gathered from ChEMBL document CHEMBL4477227.
